# Assay 1 % Inhibition (HT29 adhesion to TGFβLAP) listing for each entry below
TGT: human αVβ6 integrin on cells (human, UniProt P06756 31-1048; P18564 22-788)
Sequence (P06756 31-1048, chain 1 of 2): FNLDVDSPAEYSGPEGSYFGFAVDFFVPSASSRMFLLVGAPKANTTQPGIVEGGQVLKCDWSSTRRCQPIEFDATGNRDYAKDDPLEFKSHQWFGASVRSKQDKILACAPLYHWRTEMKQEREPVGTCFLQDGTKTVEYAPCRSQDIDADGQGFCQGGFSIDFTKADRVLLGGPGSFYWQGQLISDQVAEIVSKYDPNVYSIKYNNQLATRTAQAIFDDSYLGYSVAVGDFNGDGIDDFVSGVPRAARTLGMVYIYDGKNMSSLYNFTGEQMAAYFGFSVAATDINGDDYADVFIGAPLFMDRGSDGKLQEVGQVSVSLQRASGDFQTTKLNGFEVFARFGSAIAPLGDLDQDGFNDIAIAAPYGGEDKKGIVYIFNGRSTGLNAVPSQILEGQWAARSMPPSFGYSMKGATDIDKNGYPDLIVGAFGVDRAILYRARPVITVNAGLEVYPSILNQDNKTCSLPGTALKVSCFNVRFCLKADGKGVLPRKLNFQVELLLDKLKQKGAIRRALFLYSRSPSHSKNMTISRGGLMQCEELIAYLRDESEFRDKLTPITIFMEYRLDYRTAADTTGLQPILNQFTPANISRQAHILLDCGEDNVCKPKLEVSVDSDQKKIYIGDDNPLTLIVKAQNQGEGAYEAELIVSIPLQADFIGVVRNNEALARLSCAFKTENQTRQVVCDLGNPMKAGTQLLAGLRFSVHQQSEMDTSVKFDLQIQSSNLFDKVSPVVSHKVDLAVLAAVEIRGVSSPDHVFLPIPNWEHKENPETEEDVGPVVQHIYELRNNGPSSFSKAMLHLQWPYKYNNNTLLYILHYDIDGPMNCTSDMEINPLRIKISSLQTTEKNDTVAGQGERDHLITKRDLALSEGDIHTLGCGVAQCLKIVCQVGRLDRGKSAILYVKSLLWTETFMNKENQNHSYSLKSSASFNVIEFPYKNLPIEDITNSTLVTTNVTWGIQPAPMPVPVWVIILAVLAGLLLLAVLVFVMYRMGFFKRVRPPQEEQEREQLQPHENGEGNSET
Sequence (P18564 22-788, chain 2 of 2): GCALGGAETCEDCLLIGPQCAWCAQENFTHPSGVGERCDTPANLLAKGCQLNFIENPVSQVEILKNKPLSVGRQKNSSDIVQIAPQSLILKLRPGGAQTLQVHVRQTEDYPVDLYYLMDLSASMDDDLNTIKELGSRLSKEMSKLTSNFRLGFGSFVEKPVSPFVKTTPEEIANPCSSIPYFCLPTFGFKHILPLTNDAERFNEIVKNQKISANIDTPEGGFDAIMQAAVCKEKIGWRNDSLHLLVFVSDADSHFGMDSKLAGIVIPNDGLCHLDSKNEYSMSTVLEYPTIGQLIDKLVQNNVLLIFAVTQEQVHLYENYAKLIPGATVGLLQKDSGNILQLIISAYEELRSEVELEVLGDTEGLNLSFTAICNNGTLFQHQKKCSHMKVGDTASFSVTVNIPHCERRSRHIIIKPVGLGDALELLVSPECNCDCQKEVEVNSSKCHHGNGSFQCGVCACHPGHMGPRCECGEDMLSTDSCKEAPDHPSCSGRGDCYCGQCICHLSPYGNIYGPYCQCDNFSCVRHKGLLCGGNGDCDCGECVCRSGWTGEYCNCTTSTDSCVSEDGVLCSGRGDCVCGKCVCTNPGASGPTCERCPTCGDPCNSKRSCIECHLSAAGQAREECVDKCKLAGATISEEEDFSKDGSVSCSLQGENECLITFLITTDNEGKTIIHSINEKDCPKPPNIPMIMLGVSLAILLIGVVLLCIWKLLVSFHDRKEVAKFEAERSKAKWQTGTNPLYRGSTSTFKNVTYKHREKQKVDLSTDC
ASSAY EXPLANATION: cell-based or functional assay
QUANTITY KIND: Assay 1 % Inhibition (HT29 adhesion to TGFβLAP) (%)

BINDER | READING UNIT | READOUT NUMBER
sc 277 (antibody, V domains shown) VH: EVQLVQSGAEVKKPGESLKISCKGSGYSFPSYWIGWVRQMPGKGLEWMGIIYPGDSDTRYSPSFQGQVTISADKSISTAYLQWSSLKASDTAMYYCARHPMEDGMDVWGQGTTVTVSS VL: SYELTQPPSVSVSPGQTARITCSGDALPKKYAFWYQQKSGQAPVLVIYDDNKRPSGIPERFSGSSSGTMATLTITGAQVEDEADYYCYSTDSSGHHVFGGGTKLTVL | % | 98
sc 254 (antibody, V domains shown) VH: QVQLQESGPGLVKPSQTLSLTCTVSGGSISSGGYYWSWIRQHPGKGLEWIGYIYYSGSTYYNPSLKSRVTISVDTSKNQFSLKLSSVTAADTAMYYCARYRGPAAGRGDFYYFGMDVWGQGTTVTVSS VL: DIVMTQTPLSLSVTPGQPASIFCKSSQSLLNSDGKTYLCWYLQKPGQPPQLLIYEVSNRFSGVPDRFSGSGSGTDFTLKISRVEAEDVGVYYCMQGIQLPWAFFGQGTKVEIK | % | 98
sc 298 (antibody, V domains shown) VH: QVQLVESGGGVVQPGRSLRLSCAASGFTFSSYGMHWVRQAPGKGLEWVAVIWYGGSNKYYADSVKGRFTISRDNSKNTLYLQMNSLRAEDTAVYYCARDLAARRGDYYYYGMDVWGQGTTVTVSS VL: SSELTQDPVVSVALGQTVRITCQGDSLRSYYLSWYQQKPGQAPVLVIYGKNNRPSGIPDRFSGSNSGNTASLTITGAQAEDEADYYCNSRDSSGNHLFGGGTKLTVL | % | 98

Measured values drawn from patent US20080057063A1 for this set.
